Test system: HL-60
Protocol summary: NCI tumour cell line growth inhibition, 48 h
Calls of active or inactive are those of the source. No stated cut-off is given here; in the data, active = GI50 up to about 1.1 µM and inactive = higher.
Metric name: GI50

Cc1ccc2c(c1)-c1c3c(nn1-c1ccccc1)-c1ccccc1SC3O2 (stereo unspecified); > 100 µM (inactive)
CC1(C)OC[C@@H](O)[C@H](C#N)CO1; > 100 µM (inactive)
COc1ccc(CC2C3=C(CCCC3)CCN2C)cc1 (stereo unspecified); 29.4 µM (inactive)
COc1cc(C)c2c(c1)CN1CN2Cc2cc(OC)cc(C)c21; 21.4 µM (inactive)

response.value for CCCCCCCCCCCCCCCCCCOCC(O)COP(=O)(O)OCC1OC(n2cc(F)c(=O)[nH]c2=O)CC1O (stereo unspecified) (field: GI50) = 6.56 µM (inactive)

Quick note, GI50 for Cc1cc(C)n2nc3nc(N)c(C#N)c(-c4ccccc4)c3c2n1 landed at > 100 µM (inactive)

----------
System: KM-20L2
Protocol summary: NCI tumour cell line growth inhibition, 48 h
The source made the active and inactive calls. No stated cut-off is given here; in the data, active = GI50 up to about 1.1 µM and inactive = higher.
// reported GI50 per item

CC1OC(OP(=O)(OCc2ccccc2)OCc2ccccc2)C(OC(=O)c2ccccc2)C(OC(=O)c2ccccc2)C1I (stereo not given); 51.2 µM (inactive)
CCN(CC)CCCN1CCc2c([nH]c3ccccc23)C1c1cccnc1 (stereo not given); > 100 µM (inactive)
C/C(=N\NS(=O)(=O)c1ccc(C)cc1)c1c(O)cc(C)oc1=O; > 100 µM (inactive)

Record summary for N=S(c1ccccc1)c1ccccc1[N+](=O)[O-] (stereo not given) : reported GI50 = 21 µM (inactive)

So for O=c1c2c(-c3ccccc3)c3ccccc3nc2cnn1-c1ccccc1 , the logged GI50 turned out to be > 100 µM (inactive)

For this compound ( CN1C(c2ccccc2)CC(=Nc2ccccc2)CC1c1ccccc1 (stereo not given) ), measured GI50 is 13.3 µM (inactive)

Measured GI50, O=C(CCN(C(=O)O)S(=O)(=O)c1ccc(NC(=O)c2ccccc2)cc1)Nc1ccccc1 : > 100 µM (inactive)

Lab note: COc1ccc(C(N)=O)c(OC)c1OCc1ccccc1 gave GI50 of > 100 µM (inactive)

The compound listed as C=C1CCC2C(C)(CO)C(O)CCC2(C)C1CC(O)/C(=C/CO)C(=O)O (stereo not given) shows GI50 equal to > 100 µM (inactive)

Given item N#CCN1C(=O)c2cccc3cc([N+](=O)[O-])cc(c23)C1=O , the value recorded as its GI50 is 45.2 µM (inactive)

----------
Known GI50 of a selection of compounds
Tested on: KM12
Protocol summary: NCI tumour cell line growth inhibition, 48 h
Calls of active or inactive are those of the source. Rule as the data show it: active = GI50 up to about 1.1 µM and inactive = higher.

Solved cases (3 shown):
C/C(=N\NC(=O)c1ccccc1O)c1cccc(/C(C)=N/NC(=O)c2ccccc2O)n1.[Cl-].[Cl-].[Zn+2]; 6.25 µM (inactive)
COc1cccc(C2CC(C)(O)Oc3cc4c(cc32)OCO4)c1 (stereo unspecified); 11.2 µM (inactive)
O=C(N/N=C1/C(=O)c2c3ccccc3cc3cccc1c23)c1ccccc1; 16.7 µM (inactive)

Looking up O=C(NC/C=C/CO)c1ccccc1 , I found its GI50 recorded as > 100 µM (inactive)

Record CC(=O)NC1=C(Sc2ccc(Cl)cc2)C(=O)c2ccccc2C1=O , field GI50: 4.75 µM (inactive)

Documented GI50 of N#Cc1c(/C=C/c2ccccc2)c2c([nH]c1=S)CCCCC2 : 75.5 µM (inactive)

----------
Tested on: SF-268
Protocol summary: NCI tumour cell line growth inhibition, 48 h
Calls of active or inactive are those of the source. Rule as the data show it: active = GI50 up to about 1.1 µM and inactive = higher.
Measured GI50 by item

See these solved cases before continuing.
CCOC(=O)C(=O)/C(=C/N1C(=O)CC(=O)NC1=S)C(=O)OCC; > 100 µM (inactive)
CC1=CC[C@H](C[C@H](C#CCCCC2OCCO2)O[Si](C(C)C)(C(C)C)C(C)C)C(=O)CC1; > 100 µM (inactive)
N#Cc1nn(C(N)=O)c(N)c1C#N; > 100 µM (inactive)
CCCC1C(=O)C(CC)Cc2c(OC)ccc(OC)c21 (stereo not drawn); > 100 µM (inactive)
CC/C(C)=C1\CCC(CN2CCOCC2)C1=O (stereo not drawn); 11.5 µM (inactive)
O=C1O[C@H]2[C@@H]3OC(=O)c4cc(O)c(O)c(O)c4-c4c(cc(O)c(O)c4O)C(=O)OC[C@H]2O[C@@H](OC(=O)c2cc(O)c(O)c(O)c2)[C@@H]3OC(=O)c2cc(O)c(O)c3c2[C@@H]2C1=CC(=O)C(O)(O)C2(O)O3 (stereo partly drawn); 74.1 µM (inactive)
N#CCN1C(=O)c2cccc3cc([N+](=O)[O-])cc(c23)C1=O; 52 µM (inactive)
Cc1cc(C)n2nc3nc(N)c(C#N)c(-c4ccccc4)c3c2n1; > 100 µM (inactive)
C=CCC1(OC(C)=O)C2OC(=O)C1(O)OCC2O (stereo not drawn); > 100 µM (inactive)
O=c1c2ccc3cccc4c(=O)cc(c5ccccc15)-c2c34; > 100 µM (inactive)

--- query ---
Measured GI50, CN(C)CCNC(=O)c1cccc2c(NC(CS)C(=O)O)c3ccccc3nc12 (stereo not drawn) : 7.94 µM (inactive)

----------
Tested on: NCI-H23
Protocol summary: NCI tumour cell line growth inhibition, 48 h
Active and inactive are the calls of the source. No stated cut-off is given here; in the data, active = GI50 up to about 1.1 µM and inactive = higher.
The reply should name one outcome from 1 (yes) for active, 0 (no) for inactive

Worked set:
O=c1cccc(C2CC(CO)C3CCCCN3C2)[nH]1 (stereo not given); 0 (no)
CN(C)c1ccccc1CN1CCCN(Cc2ccccc2N(C)C)C1c1ccncc1; 0 (no)
CN(C)/C=N/c1nc2c(ncn2C2OC(CO)C(O)C2O)c(=O)[nH]1 (stereo not given); 0 (no)
COC(=O)[C@](NC(=O)OCc1ccccc1)([C@@H](C)Sc1ccc(C)cc1)C(F)(F)F; 0 (no)
CCC/C(=N\NC(=S)N1CC2CCC(CC2)C1)c1ccccn1; 1 (yes)

Consider the record given below.
In: So what was the verdict on CN1CCN(CCCCN2c3ccccc3Sc3cc(N=[N+]=[N-])ccc32)CC1 in this test?
Out: 0 (no)

----------
Tested on: COLO 205
Protocol summary: NCI tumour cell line growth inhibition, 48 h
Calls of active or inactive are those of the source. No stated cut-off is given here; in the data, active = GI50 up to about 1.1 µM and inactive = higher.
Reported GI50 by item:

// below: answered compounds
O=C(C=P(c1ccccc1)(c1ccccc1)c1ccccc1)c1cccc(-c2cccc([N+](=O)[O-])c2)c1; 1.53 µM (inactive)
Cc1cc(/N=N/c2ccc(/N=N/c3c(O)c(S(=O)(=O)O)cc4cc(S(=O)(=O)O)ccc34)cc2C)ccc1/N=N/c1ccc2cc(S(=O)(=O)O)cc(S(=O)(=O)O)c2c1; > 100 µM (inactive)
Cc1cc(C)n2nc3nc(N)c(C#N)c(-c4ccccc4)c3c2n1; > 100 µM (inactive)
N#Cc1nc2ccccc2nc1N1CCN(c2ccc([N+](=O)[O-])cc2)CC1; > 100 µM (inactive)

CCOC(=O)C(=O)Nc1ccc(C)cc1C yielded GI50 of > 100 µM (inactive)

// sample Cn1c2cccc3nnc4cccc(c4c32)n1C , its GI50 was > 100 µM (inactive)

Record summary for N=S(c1ccccc1)c1ccccc1[N+](=O)[O-] (stereo not drawn) : reported GI50 = 19.8 µM (inactive)

Looking up COC(=O)C(CC1=C(O)Nc2ccccc2N1)/C(=N/NC(N)=O)C(=O)Nc1ccccc1C (stereo not drawn) , I found its GI50 recorded as 28.5 µM (inactive)

Per the record, CC(=O)O[C@H]1[C@H](O[C@H]2CC[C@]34C[C@]35CC[C@]3(C)[C@@H]([C@@]6(C)CC[C@@H](C(C)(C)O)O6)[C@@H](O)C[C@@]3(C)[C@@H]5C[C@H](O[C@@H]3O[C@H](CO)[C@@H](O)[C@H](O)[C@H]3O)[C@H]4C2(C)C)OC[C@@H](O)[C@@H]1O has GI50 of 46.8 µM (inactive)

Record C/C=C/CC(S(=O)(=O)c1ccccc1)S(=O)(=O)c1ccccc1 , field GI50: > 100 µM (inactive)

Given item O=C(Nc1ccccc1-c1nn(CN2CCNCC2)c(=S)n(CN2CCNCC2)c1=O)C(F)(F)F , the value recorded as its GI50 is 17.1 µM (inactive)

GI50 measured on C=C(CCOC)CCC1CCCCC(=C)[C@H]1OC(C)=O (stereo partly drawn) = > 100 µM (inactive)

Field GI50 (entry CC(C)(C)C1CCC2c3c([nH]c4ccccc34)C3C(=O)N(c4ccccc4Cl)C(=O)C3C2C1 (stereo not drawn) ) reads > 10 µM (inactive)

Recorded GI50 (compound O=C1C(=O)N(c2ccc(Cl)c(Cl)c2)C(=O)C(=O)C1c1nc2ccccc2s1 ): > 100 µM (inactive)

The reported GI50 of the compound C[C@H](CCC(=O)O)[C@H]1CC[C@H]2[C@@H]3[C@@H](O)C[C@@H]4C[C@H](O)CC[C@]4(C)[C@H]3CC[C@]12C was > 100 µM (inactive)

Consider COC1(OC)C2(Cl)C(Cl)=C(Cl)C1(Cl)C1c3ccc(C(C)=O)c4cccc(c34)C12 (stereo not drawn) . Its measured GI50 is 12.8 µM (inactive)

Looking up CC1(C)CC(=O)c2c(nc3c(ccc4ccccc43)c2-c2ccc(NC(=O)CCC(=O)Nc3ccc(-c4c5c(nc6c4ccc4ccccc46)CC(C)(C)CC5=O)cc3)cc2)C1 , I found its GI50 recorded as > 100 µM (inactive)

Per the record, CN(/N=N/c1[nH]cnc1C(N)=O)C1CCCCC1 has GI50 of > 100 µM (inactive)

Data origin: ChEMBL document CHEMBL1201862
